- measurement.protocol: Thermogravimetric analysis (TGA), volatility
- Assay type: physicochemical
- condition.notes: Table III, comparative data
measured.attribute: T1/2 volatility

Lab note: measured T1/2 volatility of O=C(C=C([O-])C(F)(F)F)C(F)(F)F.O=C(C=C([O-])C(F)(F)F)C(F)(F)F.[Mg+2].c1cnc2c(c1)ccc1cccnc12 [Mg(hfa)2.1,10-phenanthroline, reference compound] was 295 °C

Lab note: measured T1/2 volatility of O=C(C=C([O-])C(F)(F)F)C(F)(F)F.O=C(C=C([O-])C(F)(F)F)C(F)(F)F.[Zn+2].c1ccc(-c2ccccn2)nc1 [Zn(hfa)2.2,2'-bipyridine, reference compound] was 295 °C

Lab note: measured T1/2 volatility of COCCOC.O=C(C=C([O-])C(F)(F)F)C(F)(F)F.O=C(C=C([O-])C(F)(F)F)C(F)(F)F.[Zn+2] was 162 °C

Lab note: measured T1/2 volatility of O=C(C=C([O-])C(F)(F)F)C(F)(F)F.O=C(C=C([O-])C(F)(F)F)C(F)(F)F.[Zn+2].c1cnc2c(c1)ccc1cccnc12 [Zn(hfa)2.1,10-phenanthroline, reference compound] was 310 °C

Lab note: measured T1/2 volatility of COCCOC.O=C(C=C([O-])C(F)(F)F)C(F)(F)F.O=C(C=C([O-])C(F)(F)F)C(F)(F)F.[Mg+2] was 170 °C
